tested.on: Cytochrome P450 2C9 (Homo sapiens)
method.summary: qHTS Assay for Inhibitors and Substrates of Cytochrome P450 2C9 (AID 883); further: nearly all actives have a fitted effect of over 60% in size
test.settings: recombinant CYP2C9, luciferin-H luminescence, 60 min; series mostly up to 57.1 µM
Inconclusive results are not listed. Calls of active or inactive are those of the source. The call rests on the fitted dose curve; in most records, active means well fitted inhibition curve with a large enough effect; inconclusive means small, poorly fitted or top-dose-only effect; inactive means no such curve, though single readings can be large or run the other way.
Choose the fitting class; nothing outside true (1) for active, false (0) for inactive is accepted.

Reference set (4 entries):
[
  {
    "smiles.notation": "CCN1C[C@@]2(COC)[C@H](O)C[C@H](OC)[C@@]34[C@@H]5C[C@@]6(O)[C@H](OC(=O)c7ccccc7)[C@H]5[C@@](OC(C)=O)([C@H]([C@@H](OC)[C@H]23)[C@H]14)[C@H](O)[C@@H]6OC",
    "group.label": "false (0)"
  },
  {
    "smiles.notation": "C=C1C/C(=C\\C)C(=O)O[C@@H]2CCN3CC=C(COC(=O)[C@]1(C)O)[C@H]23",
    "group.label": "false (0)"
  },
  {
    "smiles.notation": "COCOc1ccc(Br)cc1C(=O)/C=C\\c1ccc2c(c1)OCO2",
    "group.label": "true (1)"
  },
  {
    "smiles.notation": "C=CCCN1C[C@@H]2C[C@H](C1)c1cccc(=O)n1C2",
    "group.label": "false (0)"
  }
]

Challenge: Hello, I am checking results. What call was entered for `CC[C@H]1CN2CC[C@@H]1C[C@@H]2[C@H](O)c1ccnc2ccccc12` ?
Response given: false (0)

Challenge: Another compound to check: `C=C(C)[C@@H]1CN[C@H](C(=O)O)[C@H]1CC(=O)O`
Response given: false (0)

Challenge: Subsequent entry: `C[C@H]1CC[C@]2(NC1)O[C@@H]1C[C@@H]3[C@@H]4CC=C5C[C@H](O)CC[C@@]5(C)[C@H]4CC[C@@]3(C)[C@H]1[C@@H]2C`
Response given: false (0)

Challenge: Same question, `COc1c(-c2ccccc2)oc2c(ccc3occc32)c1=O` this time
Response given: true (1)

Challenge: # repeat for `O=C1C=CC(=O)c2c1ccc1c2ccc2ccccc21`
Response given: true (1)

----------
method.summary: qHTS for Inhibitors of the vitamin D receptor (VDR): Hit Validation using a Texas Red Assay (AID 602201)
test.settings: VDR coregulator binding, Texas Red fluorescence polarization; series mostly up to 57.1 µM
Results filed as inconclusive are left out. Calls of active or inactive are those of the source. The call rests on the fitted dose curve; in most records, active means well fitted curve in the direction sought with a large enough effect; inconclusive means small, poorly fitted or top-dose-only effect, or another doubt; inactive means no such curve, though single readings can be large or run the other way.
test.readout: outcome

Reference set, count: 5
[
  {
    "molecule": "Cc1nn(Cc2ccccc2)c(C)c1C=C1C(=O)NC(=S)NC1=O",
    "value": "inactive"
  },
  {
    "molecule": "CC(C)n1c(O)c(C2c3cc(Cl)ccc3Oc3[nH]c(=O)n(C(C)C)c(=O)c32)c(=O)[nH]c1=O (stereo not drawn)",
    "value": "inactive"
  },
  {
    "molecule": "O=C(O)CCn1cc(C=C2C(=O)NC(=S)NC2=O)c(-c2cccc(Br)c2)n1",
    "value": "inactive"
  },
  {
    "molecule": "O=C1NC(=O)C(=Cc2ccc(-c3ccc(S(=O)(=O)N4CCOCC4)cc3)o2)C(=O)N1",
    "value": "inactive"
  },
  {
    "molecule": "O=C(O)CCn1cc(C=C2C(=O)NC(=S)NC2=O)c(-c2cccc(Cl)c2)n1",
    "value": "inactive"
  }
]

Challenge: Would you mind telling me what outcome value was observed for `COc1cc(/C=C/[N+](=O)[O-])ccc1O` ?
Response given: inactive

Challenge: Would you kindly repeat that for `Cc1ccccc1N1C(=O)NC(=O)/C(=C\c2cnn(-c3ccccc3)c2)C1=O` ?
Response given: inactive

Challenge: Quick one: `Cc1ccc(N2C(=O)NC(=O)/C(=C\c3cnc(-c4ccccc4)nc3)C2=O)cc1`
Response given: inactive
